System: p21 induction in HCT116 cells
procedure_summary: p21 induction in HCT116 cells
Type: cell-based
settings: HCT116 cells, 24 h compound incubation; read-out: P21_EC50
pEC50: −log10 of the molar value.
# maps each entry to its pEC50

compound: CCc1c(N2CCN(C(=O)c3ncnc(C)c3O)[C@@H](COC)C2)c(=O)c2nc(N(C)C)cnc2n1CC(=O)Nc1ccc(C(F)(F)F)cc1Cl (single isomer, unassigned) [I-96]
experimental_endpoint: pEC50
result: < 5.30

So, CCc1c(N2CCN(C(=O)c3ncnc(C)c3O)[C@H]3CC[C@@H]32)c(=O)c2nc(NC)cnc2n1CC(=O)Nc1ccc(C(F)(F)F)cc1Cl (single isomer, unassigned) [I-171] ? Its pEC50 was < 5.30

So, CCc1c(N2C[C@H]3C[C@@H]2CN3C(=O)c2ncnc(C)c2O)c(=O)c2nc(N(C)C)cnc2n1CC(=O)Nc1ccc(C(F)(F)F)cc1Cl (single isomer, unassigned) [I-257] ? Its pEC50 was < 5.30

---

experimental_system: WRN (BV08), human Werner helicase (Uniprot Q14191, amino acids 517-1235 with L1074F point mutation) (Homo sapiens (Human), UniProt Q14191, L1074F)
Sequence (Q14191 other isoform, or with tags, fused parts or gaps L1074F (already in the parent)): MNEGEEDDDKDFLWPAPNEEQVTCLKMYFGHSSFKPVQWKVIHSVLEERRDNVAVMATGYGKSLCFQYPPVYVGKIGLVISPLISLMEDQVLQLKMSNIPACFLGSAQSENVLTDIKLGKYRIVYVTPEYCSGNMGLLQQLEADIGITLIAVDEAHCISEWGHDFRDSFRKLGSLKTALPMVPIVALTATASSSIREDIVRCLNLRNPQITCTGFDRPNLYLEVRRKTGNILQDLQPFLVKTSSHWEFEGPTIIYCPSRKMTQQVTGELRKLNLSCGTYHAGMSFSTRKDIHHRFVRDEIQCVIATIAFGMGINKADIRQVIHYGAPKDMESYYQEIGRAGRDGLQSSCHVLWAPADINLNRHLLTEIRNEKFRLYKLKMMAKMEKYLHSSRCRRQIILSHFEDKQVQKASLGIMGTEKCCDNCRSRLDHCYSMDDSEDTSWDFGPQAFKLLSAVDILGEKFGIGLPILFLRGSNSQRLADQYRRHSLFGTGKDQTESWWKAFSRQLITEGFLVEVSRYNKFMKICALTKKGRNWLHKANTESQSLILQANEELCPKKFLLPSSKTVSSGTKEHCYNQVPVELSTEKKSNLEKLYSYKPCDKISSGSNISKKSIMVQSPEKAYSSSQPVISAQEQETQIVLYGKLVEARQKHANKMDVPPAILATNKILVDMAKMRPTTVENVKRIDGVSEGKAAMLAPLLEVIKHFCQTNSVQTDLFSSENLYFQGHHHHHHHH
procedure_summary: WRN (BV08) ADP-Glo assay
settings: class symbols A-E, read-out: ADP-Glo_hWRN_IC50
experimental_endpoint: IC50

Take a look at these entries with their results.
compound: CCc1c(N2CCN(C(=O)c3ncnc(C)c3O)[C@@H](COC)C2)c(=O)c2nc(N(C)C)cnc2n1CC(=O)Nc1ccc(C(F)(F)F)cc1Cl (single isomer, unassigned) [I-303]
IC50: 50 to 100 nM
//
compound: CCc1c(N2CCN(C(=O)c3ncnc(C)c3O)CC2)c(=O)c2nc(-c3ccnc(OC)c3)cnc2n1CC(=O)Nc1ccc(C(F)(F)F)cc1Cl
IC50: 5 to 50 nM

So, CCc1c(N2CCN(C(=O)c3ncnc(C)c3O)CC2)c(=O)c2nc(CO)cnc2n1CC(=O)Nc1ccc(C(F)(F)F)cc1Cl ? Its IC50 was 50 to 100 nM

So, CCc1c(N2CCN(C(=O)c3ncnc(C)c3O)CC2)c(=O)c2nc(C(C)(C)F)cnc2n1CC(=O)Nc1ccc(C(F)(F)F)cc1Cl ? Its IC50 was 5 to 50 nM

So, CCc1c(N2CCN(C(=O)c3c(OC)ncc(C)c3O)[C@H]3CCC[C@H]32)c(=O)c2nc(N(C)C)cnc2n1CC(=O)Nc1ccc(C(F)(F)F)cc1Cl (single isomer, unassigned) ? Its IC50 was 100 to 500 nM

---

experimental_system: WRN (BV08), human Werner helicase (Uniprot Q14191, amino acids 517-1235 with L1074F point mutation) (Homo sapiens (Human), UniProt Q14191, L1074F)
procedure_summary: WRN (BV08) ADP-Glo assay
settings: class symbols A-E, read-out: ADP-Glo_hWRN_IC50
experimental_endpoint: IC50

molecule: CCc1c(N2CCN(C(=O)c3ncnc(C)c3O)CC2)c(=O)c2nc(N3CCC[C@@H]3C)cnc2n1CC(=O)Nc1ccc(C(F)(F)F)cc1Cl
result: 0.005 to 0.05 µM
//
molecule: CCc1c(N2CCN(C(=O)c3ncnc(C)c3O)CC2)c(=O)c2nc(N(C)C(C)C)cnc2n1CC(=O)Nc1ccc(C(F)(F)F)cc1Cl
result: 0.005 to 0.05 µM
//
molecule: CCc1c(N2CCN(C(=O)c3c(OC)ncc(C4CC4)c3O)[C@H]3CC[C@@H]32)c(=O)c2nc(N(C)C)cnc2n1CC(=O)Nc1ccc(C(F)(F)F)cc1Cl
result: 0.005 to 0.05 µM

So, CCc1c(N2CCN(C(=O)c3ncnc(C)c3O)CC2)c(=O)c2nc(N(C)[C@H]3C[C@H](OC)C3)cnc2n1CC(=O)Nc1ccc(C(F)(F)F)cc1Cl ? Its IC50 was 0.005 to 0.05 µM

So, CCc1c(N2CCN(C(=O)c3ncnc(C)c3O)CC2)c(=O)c2nc3cc(C)sc3nc2n1CC(=O)Nc1ccc(C(F)(F)F)cc1Cl ? Its IC50 was 0.005 to 0.05 µM

So, CCc1c(N2C[C@H]3CC[C@@H]2CN3C(=O)c2ncnc(C)c2O)c(=O)c2nc(N(C)C)cnc2n1CC(=O)Nc1ccc(C(F)(F)F)cc1Cl (single isomer, unassigned) ? Its IC50 was 0.05 to 0.1 µM

---

# maps each entry to its pEC50
Tested on: p21 induction in HCT116 cells
procedure_summary: p21 induction in HCT116 cells
Format: cell-based
settings: Homo sapiens, HCT-116, 24 h, HCT116 cells, 24 h compound incubation; read-out: P21_EC50
pEC50: −log10 of the molar value.

Take a look at these entries with their results.
molecule: CCc1c(N2CCN(C(=O)c3ncnc(C)c3O)CC2)c(=O)c2nc3c(nc2n1CC(=O)Nc1ccc(C(F)(F)F)cc1Cl)CCN3C
pEC50: 5.70 to 6.30

molecule: CCc1c(N2CCN(C(=O)c3ncnc(C)c3O)[C@H]3CC[C@@H]32)c(=O)c2nc(N(C)C)cnc2n1CC(=O)Nc1ccc(C(F)(F)F)cc1
pEC50: > 6.30

molecule: CCc1c(N2CCN(C(=O)c3ncnc(C)c3O)[C@H]3CC(F)(F)C[C@@H]32)c(=O)c2nc(N(C)C)cnc2n1CC(=O)Nc1ccc(C(F)(F)F)cc1Cl (single isomer, unassigned) [I-296]
pEC50: 5.70 to 6.30

molecule: CCc1c(N2CCN(C(=O)c3c(O)ccnc3OC)[C@@H]3CC[C@H]32)c(=O)c2nc(N(C)C)cnc2n1CC(=O)Nc1ccc(C(F)(F)F)cc1Cl (racemic)
pEC50: 5.70 to 6.30

molecule: CCc1c(N2CCN(C(=O)c3ncnc(C)c3O)CC2)c(=O)c2nc(N3CCCCC3)cnc2n1CC(=O)Nc1ccc(C(F)(F)F)cc1Cl
pEC50: 5.30 to 5.70

So, CCc1c(N2CCN(C(=O)c3ncnc(C)c3O)CC2)c(=O)c2nc(C=C3CCC3)cnc2n1CC(=O)Nc1ccc(C(F)(F)F)cc1Cl ? Its pEC50 was > 6.30

---

experimental_system: WRN (BV08), human Werner helicase (Uniprot Q14191, amino acids 517-1235 with L1074F point mutation) (Homo sapiens (Human), UniProt Q14191, L1074F)
procedure_summary: WRN (BV08) ADP-Glo assay
settings: class symbols A-E, read-out: ADP-Glo_hWRN_IC50
# maps each entry to its IC50

compound: CCc1c(N2CCN(C(=O)c3ncnc(C)c3O)[C@H]3CC[C@@H]32)c(=O)c2nc(N3CCCC3)cnc2n1CC(=O)Nc1ccc(C(F)(F)F)cc1Cl [I-105]
experimental_endpoint: IC50
result: 5 to 50 nM

compound: CCc1c(N2CCN(C(=O)c3ncnc(C)c3O)CC2)c(=O)c2nc(C3CCC3)cnc2n1CC(=O)Nc1ccc(C(F)(F)F)cc1Cl [I-223]
experimental_endpoint: IC50
result: 5 to 50 nM

// moving on: another record for IC50
So, CCc1c(N2CCN(C(=O)c3ncnc(C)c3O)[C@@H](C(F)F)C2)c(=O)c2nc(N(C)C)cnc2n1CC(=O)Nc1ccc(C(F)(F)F)cc1Cl [I-197] ? Its IC50 was 50 to 100 nM

---

Tested on: p21 induction in HCT116 cells
procedure_summary: p21 induction in HCT116 cells
Assay type: cell-based
settings: Homo sapiens, HCT-116, 24 h, HCT116 cells, 24 h compound incubation; read-out: P21_EC50
# maps each entry to its EC50

Take a look at these entries with their results.
compound: CCc1c(N2CCN(C(=O)c3ncnc(C)c3O)[C@H]3CC[C@@H]32)c(=O)c2nc(N3CC(OC)C3)cnc2n1CC(=O)Nc1ccc(C(F)(F)F)cc1Cl
result: < 500 nM
//
compound: CCc1c(N2CCN(C(=O)c3ncnc(C)c3O)CC2)c(=O)c2nc(N3CCC4(CCC4)C3)cnc2n1CC(=O)Nc1ccc(C(F)(F)F)cc1Cl
result: 2000 to 5000 nM

So, CCc1c(N2CCN(C(=O)c3ncnc(C)c3O)CC2)c(=O)c2nc(C#N)cnc2n1CC(=O)Nc1ccc(C(F)(F)F)cc1Cl ? Its EC50 was > 5000 nM

So, CCc1c(N2CCN(C(=O)c3c(OC)ncc(C4CC4)c3O)[C@H]3CC[C@@H]32)c(=O)c2nc(N(C)C)cnc2n1CC(=O)Nc1ccc(C(F)(F)F)cc1Cl ? Its EC50 was < 500 nM

So, CCc1c(N2CCN(C(=O)c3ncnc(C)c3O)[C@H]3CC[C@@H]32)c(=O)c2nc(CN3CCOCC3)cnc2n1CC(=O)Nc1ccc(C(F)(F)F)cc1Cl ? Its EC50 was 500 to 2000 nM

So, CCc1c(N2CCN(C(=O)c3ncnc(C)c3O)CC2)c(=O)c2nc(N3CC(F)(F)C3)cnc2n1CC(=O)Nc1ccc(C(F)(F)F)cc1Cl ? Its EC50 was > 5000 nM
